- system_name: Dual specificity protein kinase TTK (Homo sapiens);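 note: reported figures are mean TTK inhibition at 1 µM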
- condition_info: at 1 µM
observed_property: inhibition (%)
Response body: numeric value in %, unit text excluded.

Look over these answered cases.
smi=Cc1nnc(-c2ccc(C)c(-c3ccc(C(=O)NCc4ccc(Cl)cc4)cc3)c2)o1 observed_property=inhibition recorded_result=-0.17
smi=CCC(=O)Nc1ccc(C)c(-c2ccc(C(=O)NCC3CC3)cc2)c1 observed_property=inhibition recorded_result=8.22
smi=CCc1cccc(CC)c1/C=C/c1cncc(C(=O)NC)c1 observed_property=inhibition recorded_result=-0.69

Return reported inhibition; argument: COc1cc(Nc2ncc(-c3ccccc3)o2)cc(OC)c1OC -1.01

Field entry: COc1cc(C)c(N(C)C(=O)CN(C)C)cc1Nc1nc(Nc2cccc(F)c2C(N)=O)c2cc[nH]c2n1 25.7

Field entry: NS(=O)(=O)c1ccc(Nc2cc(-c3ccc(O)c(F)c3)n[nH]2)cc1 10

Field entry: CCS(=O)(=O)c1ccc(OC)c(Nc2ncc(-c3cccc(-c4ccccc4F)c3)o2)c1 3.52

Field entry: c1ccc(Oc2ccc(Nc3ncc(-c4ccccc4)o3)cc2)cc1 5.67

Field entry: O=C(Nc1n[nH]c2cc(-c3cc(F)ccc3F)ccc12)C1CC1 9.7

Field entry: FC(F)(F)c1cccc(Nc2nccc(-c3cnn4nc(-c5ccccc5)ccc34)n2)c1 6.07

---

- system_name: Tyrosine-protein kinase ABL2 (Homo sapiens) (UniProt P42684);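 note: values are mean percent inhibition of ARG (ABL2), measured within the GSK PKIS set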
- Sequence (P42684 whole entry): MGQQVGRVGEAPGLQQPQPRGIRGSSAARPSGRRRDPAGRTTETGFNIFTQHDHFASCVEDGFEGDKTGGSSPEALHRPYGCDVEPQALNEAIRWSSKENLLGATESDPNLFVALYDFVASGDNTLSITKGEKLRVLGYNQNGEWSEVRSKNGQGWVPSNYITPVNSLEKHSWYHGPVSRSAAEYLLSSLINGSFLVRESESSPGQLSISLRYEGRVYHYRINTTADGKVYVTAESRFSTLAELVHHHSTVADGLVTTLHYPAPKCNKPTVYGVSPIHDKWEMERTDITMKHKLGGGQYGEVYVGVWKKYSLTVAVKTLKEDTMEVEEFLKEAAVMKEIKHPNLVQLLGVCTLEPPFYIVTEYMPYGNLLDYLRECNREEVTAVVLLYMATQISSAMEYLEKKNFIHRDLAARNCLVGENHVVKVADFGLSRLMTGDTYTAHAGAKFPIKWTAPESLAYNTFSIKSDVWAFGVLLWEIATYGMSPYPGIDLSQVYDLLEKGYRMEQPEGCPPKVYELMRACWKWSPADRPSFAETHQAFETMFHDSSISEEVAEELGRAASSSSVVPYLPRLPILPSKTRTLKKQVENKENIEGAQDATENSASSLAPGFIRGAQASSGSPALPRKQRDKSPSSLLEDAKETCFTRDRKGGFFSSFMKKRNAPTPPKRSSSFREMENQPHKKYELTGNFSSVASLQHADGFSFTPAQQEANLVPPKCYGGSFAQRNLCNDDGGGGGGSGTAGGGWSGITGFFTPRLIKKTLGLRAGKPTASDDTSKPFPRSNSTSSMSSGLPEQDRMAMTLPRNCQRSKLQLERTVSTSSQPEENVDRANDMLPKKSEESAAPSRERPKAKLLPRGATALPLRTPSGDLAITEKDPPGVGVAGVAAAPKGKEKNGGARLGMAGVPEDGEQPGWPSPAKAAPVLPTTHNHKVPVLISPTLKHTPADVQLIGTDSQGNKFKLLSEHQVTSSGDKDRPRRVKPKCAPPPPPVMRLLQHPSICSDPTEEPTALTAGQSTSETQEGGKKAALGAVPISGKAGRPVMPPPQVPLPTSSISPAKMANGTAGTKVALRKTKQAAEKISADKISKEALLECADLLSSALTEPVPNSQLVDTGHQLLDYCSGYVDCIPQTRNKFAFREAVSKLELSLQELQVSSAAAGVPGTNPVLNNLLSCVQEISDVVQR
- condition_info: at 0.1 µM
observed_property: inhibition (%)
Response body: numeric value in %, unit text excluded.

Look over these answered cases.
smi=COC(=O)Nc1nc2ccc(Sc3ccc(NC(=O)Nc4cc(C(F)(F)F)ccc4F)cc3)cc2[nH]1 recorded_result=11.8
smi=COc1cccc(-n2cnc3c(N/N=C/c4ccncc4)ncnc32)c1 recorded_result=12.7
smi=O=C(Nc1n[nH]c2nc(-c3ccc(O)cc3)c(Br)cc12)C1CC1 recorded_result=7.68
smi=O=C1Nc2ccccc2/C1=C/Nc1ccc(-n2cncn2)cc1 recorded_result=3.58
smi=COc1ccc2ncn(-c3cc(O[C@H](C)c4ccccc4Cl)c(C(N)=O)s3)c2c1 recorded_result=-1.99

Return reported inhibition; argument: Fc1ccc(-c2ncn(CCCN3CCOCC3)c2-c2ccncc2)cc1 1.71

Field entry: CCN(CC)Cc1ccc(Nc2nccc(-c3cnn4ncccc34)n2)cc1 1.47

Field entry: CCc1cccc(CC)c1/C=C/c1cncc(C(=O)NC)c1 5.58

---

- system_name: Serine/threonine-protein kinase MRCK alpha (Homo sapiens) (UniProt Q5VT25);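 note: each value is an averaged percent inhibition of MRCK alpha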
- Sequence (Q5VT25 whole entry): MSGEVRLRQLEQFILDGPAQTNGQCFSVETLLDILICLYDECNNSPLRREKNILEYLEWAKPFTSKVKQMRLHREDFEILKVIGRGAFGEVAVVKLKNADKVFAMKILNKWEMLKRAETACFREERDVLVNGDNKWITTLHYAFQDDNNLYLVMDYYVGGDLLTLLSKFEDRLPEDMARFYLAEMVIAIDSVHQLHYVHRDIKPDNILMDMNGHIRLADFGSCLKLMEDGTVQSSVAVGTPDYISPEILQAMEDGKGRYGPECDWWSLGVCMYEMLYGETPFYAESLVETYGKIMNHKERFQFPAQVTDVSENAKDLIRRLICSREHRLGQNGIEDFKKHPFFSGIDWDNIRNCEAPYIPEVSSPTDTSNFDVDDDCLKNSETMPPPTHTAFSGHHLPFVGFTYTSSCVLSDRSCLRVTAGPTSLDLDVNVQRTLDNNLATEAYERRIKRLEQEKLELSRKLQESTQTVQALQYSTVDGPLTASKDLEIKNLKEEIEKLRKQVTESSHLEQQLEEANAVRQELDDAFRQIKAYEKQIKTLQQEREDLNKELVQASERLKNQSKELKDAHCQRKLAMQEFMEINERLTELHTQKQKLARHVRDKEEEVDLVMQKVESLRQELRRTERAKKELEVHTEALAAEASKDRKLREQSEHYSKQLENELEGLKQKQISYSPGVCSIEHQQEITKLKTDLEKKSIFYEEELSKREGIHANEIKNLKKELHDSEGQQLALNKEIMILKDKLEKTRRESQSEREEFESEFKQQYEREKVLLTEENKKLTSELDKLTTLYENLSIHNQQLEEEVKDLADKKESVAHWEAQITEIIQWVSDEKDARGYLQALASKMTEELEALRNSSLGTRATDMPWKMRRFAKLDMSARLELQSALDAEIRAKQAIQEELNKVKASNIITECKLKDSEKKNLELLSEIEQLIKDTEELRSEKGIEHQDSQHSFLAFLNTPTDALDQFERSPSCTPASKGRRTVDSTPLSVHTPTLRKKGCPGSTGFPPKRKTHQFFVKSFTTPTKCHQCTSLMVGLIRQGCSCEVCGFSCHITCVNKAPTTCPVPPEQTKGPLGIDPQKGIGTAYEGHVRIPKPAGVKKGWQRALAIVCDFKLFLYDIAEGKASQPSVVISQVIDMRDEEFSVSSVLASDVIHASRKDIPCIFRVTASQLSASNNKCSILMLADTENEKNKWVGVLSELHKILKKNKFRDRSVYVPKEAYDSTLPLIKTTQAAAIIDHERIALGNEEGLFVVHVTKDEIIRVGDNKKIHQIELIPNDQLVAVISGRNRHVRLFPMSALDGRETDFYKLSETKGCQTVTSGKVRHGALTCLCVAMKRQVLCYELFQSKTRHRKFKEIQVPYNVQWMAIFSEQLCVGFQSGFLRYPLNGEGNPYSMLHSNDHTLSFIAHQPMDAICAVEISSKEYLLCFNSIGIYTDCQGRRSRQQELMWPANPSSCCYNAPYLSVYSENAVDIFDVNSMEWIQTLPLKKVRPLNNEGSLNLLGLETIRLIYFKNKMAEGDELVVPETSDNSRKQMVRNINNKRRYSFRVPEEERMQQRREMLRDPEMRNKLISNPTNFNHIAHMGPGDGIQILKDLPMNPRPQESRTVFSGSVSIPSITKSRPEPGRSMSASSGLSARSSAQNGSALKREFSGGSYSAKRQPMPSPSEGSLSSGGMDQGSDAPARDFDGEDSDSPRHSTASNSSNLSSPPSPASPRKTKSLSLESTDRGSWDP
- condition_info: at 1 µM
observed_property: inhibition (%)
Response body: numeric value in %, unit text excluded.

Look over these answered cases.
compound=NS(=O)(=O)c1ccc(Nc2cc(-c3ccc(O)c(F)c3)n[nH]2)cc1 unit=% recorded_result=0.17
compound=Fc1ccc(-c2c(-c3ccncc3)nc3n2CCS3)cc1 unit=% recorded_result=5.14
compound=C#Cc1cccc(Nc2ncnc3ccc(OCCCCNCCS(C)(=O)=O)cc23)c1 unit=% recorded_result=7.35
compound=COc1cc(Nc2ncc3c(C)nc(-c4cccc(C(F)(F)F)c4)n3n2)cc(OC)c1OC unit=% recorded_result=4.12
compound="COc1ccc2cc(-c3c(-c4ccncc4)nc(-c4ccc([S+](C)[O-])cc4C)n3C)ccc2c1 (stereo not given)" unit=% recorded_result=1.91

Could you share what inhibition was measured for CCN(CC)Cc1ccc(Nc2nccc(-c3cnn4ncccc34)n2)cc1 , tested on Serine/threonine-protein kinase MRCK alpha (Homo sapiens) (UniProt Q5VT25)? 4.32

Field entry: COc1cccc(/C=N/Nc2ncnc3c2cnn3-c2cccc(OC)c2)c1 -0.23

Field entry: O=C1Nc2ccccc2/C1=C/Nc1ccc(-n2cncn2)cc1 3.59

Field entry: Nc1nccc(-c2c(-c3ccc(F)cc3)ncn2C2CCC(O)CC2)n1 (stereo not given) -0.81

Field entry: COc1cc(Nc2ncc3c(C)nc(-c4cccc(Oc5ccccc5)c4)n3n2)cc(OC)c1OC -0.11

---

- system_name: RAF proto-oncogene serine/threonine-protein kinase (Homo sapiens);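 note: values are mean CRAF kinase inhibition from profiling of the GSK Published Kinase Inhibitor Set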
- condition_info: at 0.1 µM
observed_property: inhibition (%)
Response body: numeric value in %, unit text excluded.

Look over these answered cases.
compound=COc1ccc2cc(-c3c(-c4ccncc4)nc(-c4ccc(S(C)(=O)=O)cc4C)n3C)ccc2c1 system_name="RAF proto-oncogene serine/threonine-protein kinase (Homo sapiens)" unit=% recorded_result=5.5
compound=CN(c1ccc(NC(=O)Nc2c(Cl)cccc2Cl)cc1)c1ccnc(Nc2cccc(CS(C)(=O)=O)c2)n1 system_name="RAF proto-oncogene serine/threonine-protein kinase (Homo sapiens)" unit=% recorded_result=0.7
compound=CN(C)CCCNc1nccc(-c2c(-c3ccc(F)cc3)nn3cc(C(F)(F)F)ccc23)n1 system_name="RAF proto-oncogene serine/threonine-protein kinase (Homo sapiens)" unit=% recorded_result=3.17
compound=COc1cc(Nc2ncc3c(C)nc(-c4cccc(Oc5ccccc5)c4)n3n2)cc(OC)c1OC system_name="RAF proto-oncogene serine/threonine-protein kinase (Homo sapiens)" unit=% recorded_result=2.2
compound=Fc1ccc(-c2ncn(C3CCNCC3)c2-c2ccnc(Oc3ccc4c(c3)OCO4)n2)cc1 system_name="RAF proto-oncogene serine/threonine-protein kinase (Homo sapiens)" unit=% recorded_result=1.31
compound=CCN(CC)Cc1ccc(Nc2nccc(-c3cnn4ncccc34)n2)cc1 system_name="RAF proto-oncogene serine/threonine-protein kinase (Homo sapiens)" unit=% recorded_result=0.49
compound=COc1cc2ncn(-c3cc(OCCc4ccccc4)c(C(N)=O)s3)c2cc1OC system_name="RAF proto-oncogene serine/threonine-protein kinase (Homo sapiens)" unit=% recorded_result=0.38
compound="COc1ccc2cc(-c3c(-c4ccncc4)nc(-c4ccc([S+](C)[O-])cc4C)n3C)ccc2c1 (stereo not given)" system_name="RAF proto-oncogene serine/threonine-protein kinase (Homo sapiens)" unit=% recorded_result=-0.64
compound=Fc1ccc(-c2nc3n(c2-c2ccncc2)CCS3)cc1 system_name="RAF proto-oncogene serine/threonine-protein kinase (Homo sapiens)" unit=% recorded_result=1.81

Pending compound:
Could you share what inhibition was measured for O=C1Nc2ccc(I)cc2C1=Cc1cc(Br)c(O)c(Br)c1 , tested on RAF proto-oncogene serine/threonine-protein kinase (Homo sapiens)? 8.31

---

- system_name: Discoidin domain-containing receptor 2 (Homo sapiens) (UniProt Q16832);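 note: reported values are mean percent inhibition of DDR2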
- Sequence (Q16832 whole entry, the tested form may be a part): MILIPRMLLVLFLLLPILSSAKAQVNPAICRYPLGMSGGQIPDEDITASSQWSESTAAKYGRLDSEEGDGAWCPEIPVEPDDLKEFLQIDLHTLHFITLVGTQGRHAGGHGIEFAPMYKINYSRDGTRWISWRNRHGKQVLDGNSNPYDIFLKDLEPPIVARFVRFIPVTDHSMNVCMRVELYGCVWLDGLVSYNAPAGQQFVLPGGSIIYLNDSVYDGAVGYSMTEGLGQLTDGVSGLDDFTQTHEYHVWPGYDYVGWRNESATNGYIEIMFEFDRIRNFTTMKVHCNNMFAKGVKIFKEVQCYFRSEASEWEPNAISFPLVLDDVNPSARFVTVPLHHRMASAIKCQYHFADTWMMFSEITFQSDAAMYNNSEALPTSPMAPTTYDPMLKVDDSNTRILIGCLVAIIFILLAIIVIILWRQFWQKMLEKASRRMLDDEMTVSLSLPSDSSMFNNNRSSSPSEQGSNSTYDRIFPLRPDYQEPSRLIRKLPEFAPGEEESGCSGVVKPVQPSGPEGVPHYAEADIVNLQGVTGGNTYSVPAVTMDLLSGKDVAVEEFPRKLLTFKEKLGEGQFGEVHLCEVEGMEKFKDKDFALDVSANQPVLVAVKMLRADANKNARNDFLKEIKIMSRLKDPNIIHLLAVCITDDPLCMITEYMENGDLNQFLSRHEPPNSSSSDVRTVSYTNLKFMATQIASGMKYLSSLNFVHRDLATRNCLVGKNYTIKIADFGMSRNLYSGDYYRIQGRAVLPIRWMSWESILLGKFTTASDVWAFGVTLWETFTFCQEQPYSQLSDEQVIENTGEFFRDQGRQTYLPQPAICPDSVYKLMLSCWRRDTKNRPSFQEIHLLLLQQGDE
- condition_info: at 0.1 µM
inhibition values by entry
Response body: numeric value in %, unit text excluded.

smi=CCN(CC)Cc1ccc(Nc2nccc(-c3cnn4ncccc34)n2)cc1 system_name="Discoidin domain-containing receptor 2 (Homo sapiens) (UniProt Q16832)" recorded_result=1.64
smi=O=C(NCC1CC1)c1ccc(-c2cccc(C(=O)NC3CC3)c2)cc1 system_name="Discoidin domain-containing receptor 2 (Homo sapiens) (UniProt Q16832)" recorded_result=4.92
smi=CCc1cccc(CC)c1/C=C/c1cncc(C(=O)NC)c1 system_name="Discoidin domain-containing receptor 2 (Homo sapiens) (UniProt Q16832)" recorded_result=1.3
smi=O=C1Nc2ccccc2/C1=C/Nc1ccc(-n2cncn2)cc1 system_name="Discoidin domain-containing receptor 2 (Homo sapiens) (UniProt Q16832)" recorded_result=-0.37
smi=Clc1ccc(CNc2nccc(-c3cnn4ncccc34)n2)cc1 system_name="Discoidin domain-containing receptor 2 (Homo sapiens) (UniProt Q16832)" recorded_result=1.86

Could you share what inhibition was measured for O=C1Nc2ccc(I)cc2C1=Cc1cc(Br)c(O)c(Br)c1 , tested on Discoidin domain-containing receptor 2 (Homo sapiens) (UniProt Q16832)? 1.45

---

- system_name: Platelet-derived growth factor receptor alpha (Homo sapiens);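 note: values are mean percent inhibition of PDGFRA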
- condition_info: at 1 µM
observed_property: inhibition (%)
Response body: numeric value in %, unit text excluded.

compound=Cc1nnc(-c2ccc(C)c(-c3ccc(C(=O)NCc4ccc(Cl)cc4)cc3)c2)o1 observed_property=inhibition unit=% recorded_result=8.84
compound=O=C(Nc1n[nH]c2nc(-c3ccco3)ccc12)C1CC1 observed_property=inhibition unit=% recorded_result=10.6
compound=C[C@@H](Oc1cc(-n2cnc3ccc(OCC4CCN(C)CC4)cc32)sc1C(N)=O)c1ccccc1Cl observed_property=inhibition unit=% recorded_result=75.7
compound=COc1cc(N2CCN(C(C)C)CC2)ccc1Nc1nc(Nc2ccc(F)cc2C(=O)NC[C@@H](O)CO)c2cc[nH]c2n1 observed_property=inhibition unit=% recorded_result=14.1
compound=O=C(Nc1n[nH]c2cc(-c3ccccc3)ccc12)C1CC1 observed_property=inhibition unit=% recorded_result=20.4
compound="COc1ccc2cc(-c3c(-c4ccncc4)nc(-c4ccc([S+](C)[O-])cc4C)n3C)ccc2c1 (stereo not given)" observed_property=inhibition unit=% recorded_result=12.4
compound=NC(=O)c1cc(-c2ccc(F)cc2)cc(-c2ccncc2)c1N observed_property=inhibition unit=% recorded_result=7.4
compound=Fc1ccc(-c2ncn(CCCN3CCOCC3)c2-c2ccncc2)cc1 observed_property=inhibition unit=% recorded_result=7.26

Could you share what inhibition was measured for COc1cc2ncn(-c3cc(OCCc4ccccc4)c(C(N)=O)s3)c2cc1OC , tested on Platelet-derived growth factor receptor alpha (Homo sapiens)? 51.4

Field entry: CN(C)CCOc1ccc(-c2cc(-c3ccc4c(c3)CCC4=NO)c(-c3ccncc3)o2)cc1 9.14
